These data points were gathered from patent US20240423207A1.

test system: Puccinia triticina; Synonym: Puccinia recondita f sp. tritici; assay: Wheat Brown Rust (PUCCRT) fungicidal activity on wheat seedlings; type: in vivo; conditions: 72 h; Low Volume, 121.5 g/H; 3 Day Curative; read-out: PUCCRT 3DC disease control
Assign pest or weed control at 121.5 g/ha to each entry below.

COc1ccnc(C(=O)N[C@@H](C)C(=O)O[C@@H](C)C(c2ccc(F)cc2)c2ccc(F)cc2)c1OCOC(C)=O : > 80%
COc1ccnc(C(=O)N[C@@H](C)C(=O)O[C@@H](C)C(F)(c2ccccc2)c2ccccc2)c1OCOC(C)=O : < 80%
COc1ccccc1C(c1ccccc1OC)[C@H](C)OC(=O)[C@H](C)NC(=O)c1nccc(OC)c1OCOC(C)=O : > 80%
COc1ccnc(C(=O)N[C@@H](C)C(=O)O[C@@H](C)C(c2ccc(F)c(C)c2)c2ccc(F)c(C)c2)c1OC(C)=O : < 80%
COc1ccnc(C(=O)N[C@@H](C)C(=O)O[C@@H](C)C(F)(c2ccccc2)c2ccccc2)c1OC(C)=O : < 80%

Please supply pest or weed control at 121.5 g/ha for each of the following items, keeping them in order.
1. COc1ccnc(C(=O)N[C@@H](C)C(=O)O[C@@H](C)C(c2ccccc2)c2ccccc2)c1OC(C)=O
2. COc1ccnc(C(=O)N[C@@H](C)C(=O)O[C@@H](C)C(c2ccccc2)c2ccccc2)c1OC(=O)C(C)C
3. COc1ccnc(C(=O)N[C@@H](C)C(=O)O[C@@H](C)C(c2ccc(Cl)c(C)c2)c2ccc(Cl)c(C)c2)c1OC(C)=O
4. COc1ccnc(C(=O)N[C@@H](C)C(=O)O[C@@H](C)C(c2ccc(C)c(Cl)c2)c2ccc(C)c(Cl)c2)c1OCOC(C)=O
5. COc1ccnc(C(=O)N[C@@H](C)C(=O)O[C@@H](C)C(c2ccc(F)cc2)c2ccc(F)cc2)c1OC(C)=O
6. CCCCC(=O)Oc1c(OC)ccnc1C(=O)N[C@@H](C)C(=O)O[C@@H](C)C(c1ccc(F)cc1)c1ccc(F)cc1

> 80%
< 80%
< 80%
< 80%
> 80%
< 80%

Quick one: give me pest or weed control at 121.5 g/ha for each item below, same order please.
1. COc1ccnc(C(=O)N[C@@H](C)C(=O)O[C@@H](C)C(OC)(c2ccccc2)c2ccccc2)c1OCOC(C)=O
2. CCc1ccc(C(c2ccc(CC)cc2)[C@H](C)OC(=O)[C@H](C)NC(=O)c2nccc(OC)c2OCOC(C)=O)cc1
3. COc1cccc(C(c2cccc(OC)c2)[C@H](C)OC(=O)[C@H](C)NC(=O)c2nccc(OC)c2OCOC(C)=O)c1

["< 80%", "< 80%", "> 80%"]
